target-desc: isomerase (Mus musculus)
Construct: The recovery of 11-cis-retinal after bleaching can be used to estimate the activity of isomerase in vivo; from tissue; host or cells: eye (RPE) of living CD-1 albino male mice
assay-summary: In vivo murine isomerase assay (recovery of 11-cis-retinal after photobleaching)
Design: species or system CD-1 (albino) male mice
condition-label: CD1 male mice, single oral dose 1 mg/kg, photobleaching 4 h post dosing
Description: The capability of amine derivative compounds to inhibit isomerase was determined by an in vivo murine isomerase assay. […] […] Retinoids were extracted from the eye and the regeneration of 11-cis-retinal was assessed at various time intervals. […] The samples were analyzed on an Agilent 1100 HPLC system with normal phase column: SILICA (Beckman Coutlier, dp 5 μm, 4.6 mM×250 mM). […] The area under the curve for 11-cis retinal oxime was calculated by Agilent Chemstation software and was recorded manually. […]
property: % Inhibition 1 mg/kg 4 h (%)

> print(dat)
                                   compound                  property  result
1  CCCC(O)(CCC)CCc1cccc(CCCN)c1 [Example 3]  % Inhibition 1 mg/kg 4 h      36
2  NCCC(O)c1cccc(CCC2CCCC2)c1 (stereo not drawn) [Example 17]  % Inhibition 1 mg/kg 4 h      84
3  CCCCCc1cccc(CCCN)c1 [Example 27, 3-(3-pentylphenyl)propan-1-amine]  % Inhibition 1 mg/kg 4 h       6
4  NCCC(O)c1cccc(CCCCCCO)c1 (stereo not drawn) [Example 59]  % Inhibition 1 mg/kg 4 h      14
5  NCCCc1cccc(CCC2CCCCC2O)c1 (stereo not drawn) [Example 187]  % Inhibition 1 mg/kg 4 h       9
6  NCCC(O)c1cccc(CCC2CCCCC2O)c1 (stereo not drawn) [Example 100]  % Inhibition 1 mg/kg 4 h       9

====

target-desc: isomerase (Mus musculus)
Construct: The recovery of 11-cis-retinal after bleaching can be used to estimate the activity of isomerase in vivo; from tissue; host or cells: eye (RPE) of living CD-1 albino male mice
assay-summary: In vivo murine isomerase assay (recovery of 11-cis-retinal after photobleaching)
Design: species or system CD-1 (albino) male mice
condition-label: mouse, po, read-out: ED50 (dose of compound that gives 50% inhibition of 11-cis retinal (oxime) recovery), CD-1 male mice, oral gavage, photobleached 4 hours after dosing; estimated
Catalogue of ED50 values
property: ED50 (mg/kg)

> print(dat)
                                   molecule  unit.info  result
1              CCCC(O)(CCC)CCc1cccc(CCCN)c1      mg/kg       2
2  CCCC(O)(CCC)CCc1cccc(C(O)CCN)c1 (stereo not shown)      mg/kg   0.651
3                  CC(C)(C)CCc1cccc(CCCN)c1      mg/kg       4
4  NCCC(O)c1cccc(CCC2(O)CCCCC2)c1 (stereo not shown)      mg/kg       2

====

target-desc: isomerase (Mus musculus, UniProt Q91ZQ5)
Construct: The recovery of 11-cis-retinal after bleaching can be used to estimate the activity of isomerase in vivo; from tissue; host or cells: eye (RPE) of living CD-1 albino male mice
Sequence (Q91ZQ5 1-533): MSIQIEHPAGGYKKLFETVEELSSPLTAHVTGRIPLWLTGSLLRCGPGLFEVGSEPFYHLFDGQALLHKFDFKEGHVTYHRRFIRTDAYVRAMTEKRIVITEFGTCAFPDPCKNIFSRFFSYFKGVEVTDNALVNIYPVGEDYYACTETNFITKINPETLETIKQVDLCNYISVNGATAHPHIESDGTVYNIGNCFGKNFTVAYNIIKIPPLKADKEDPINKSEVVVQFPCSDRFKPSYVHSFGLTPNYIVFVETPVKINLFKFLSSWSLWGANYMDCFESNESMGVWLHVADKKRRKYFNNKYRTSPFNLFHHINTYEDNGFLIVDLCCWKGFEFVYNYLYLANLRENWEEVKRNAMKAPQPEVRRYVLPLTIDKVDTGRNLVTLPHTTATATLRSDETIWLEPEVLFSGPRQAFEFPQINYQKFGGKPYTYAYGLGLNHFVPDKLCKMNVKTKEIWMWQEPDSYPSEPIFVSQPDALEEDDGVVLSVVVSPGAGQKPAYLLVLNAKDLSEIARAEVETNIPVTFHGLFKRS
assay-summary: In vivo murine isomerase assay (recovery of 11-cis-retinal after photobleaching)
Set-up: species or system CD-1 (albino) male mice
condition-label: CD1 male mice, single oral dose 1 mg/kg, photobleaching 24 h post dosing
property: % Inhibition 1 mg/kg 24 h (%)

> print(dat)
                                    compound                               target.desc                   property  unit.info  result
 1  NCCOc1cccc(CCC2(O)CCSCC2)c1 [Example 11]  isomerase (Mus musculus, UniProt Q91ZQ5)  % Inhibition 1 mg/kg 24 h          %       0
 2  NCCCc1cccc(CCC2(O)CCCCCC2)c1 [Example 20]  isomerase (Mus musculus, UniProt Q91ZQ5)  % Inhibition 1 mg/kg 24 h          %       2
 3  NCCC(O)c1cccc(CCC2(O)CCCCCC2)c1 (centres unmarked) [Example 16]  isomerase (Mus musculus, UniProt Q91ZQ5)  % Inhibition 1 mg/kg 24 h          %       0
 4  NCCC(O)c1cccc(CCC2CCCC2)c1 (centres unmarked) [Example 17]  isomerase (Mus musculus, UniProt Q91ZQ5)  % Inhibition 1 mg/kg 24 h          %       0
 5  NCCOc1cccc(CCC2(O)CCCCC2)c1 [Example 12]  isomerase (Mus musculus, UniProt Q91ZQ5)  % Inhibition 1 mg/kg 24 h          %      12
 6  CCCC(O)(CCC)CCc1cccc(OCCN)c1 [Example 9]  isomerase (Mus musculus, UniProt Q91ZQ5)  % Inhibition 1 mg/kg 24 h          %       6
 7     CC(C)(C)CCc1cccc(CCCN)c1 [Example 29]  isomerase (Mus musculus, UniProt Q91ZQ5)  % Inhibition 1 mg/kg 24 h          %       0
 8  CCCCCc1cccc(CCCN)c1 [Example 27, 3-(3-pentylphenyl)propan-1-amine]  isomerase (Mus musculus, UniProt Q91ZQ5)  % Inhibition 1 mg/kg 24 h          %      29
 9  NCCOc1cccc(CCC2(O)CCCCCC2)c1 [Example 10]  isomerase (Mus musculus, UniProt Q91ZQ5)  % Inhibition 1 mg/kg 24 h          %       1
10  CCCC(O)(CCC)CCc1cccc(CCCN)c1 [Example 3]  isomerase (Mus musculus, UniProt Q91ZQ5)  % Inhibition 1 mg/kg 24 h          %      13
11   NCCCc1cccc(CCC2(O)CCCCC2)c1 [Example 7]  isomerase (Mus musculus, UniProt Q91ZQ5)  % Inhibition 1 mg/kg 24 h          %      12

====

target-desc: visual cycle isomerase (Bos taurus, UniProt Q28175)
Construct: Bovine Retinal Pigment Epithelium (RPE) microsome membranes were the source of a visual cycle isomerase; from tissue; host or cells: bovine retinal pigment epithelium microsome membranes; CRALBP made in E. coli
Sequence (Q28175 2-533 limits assumed): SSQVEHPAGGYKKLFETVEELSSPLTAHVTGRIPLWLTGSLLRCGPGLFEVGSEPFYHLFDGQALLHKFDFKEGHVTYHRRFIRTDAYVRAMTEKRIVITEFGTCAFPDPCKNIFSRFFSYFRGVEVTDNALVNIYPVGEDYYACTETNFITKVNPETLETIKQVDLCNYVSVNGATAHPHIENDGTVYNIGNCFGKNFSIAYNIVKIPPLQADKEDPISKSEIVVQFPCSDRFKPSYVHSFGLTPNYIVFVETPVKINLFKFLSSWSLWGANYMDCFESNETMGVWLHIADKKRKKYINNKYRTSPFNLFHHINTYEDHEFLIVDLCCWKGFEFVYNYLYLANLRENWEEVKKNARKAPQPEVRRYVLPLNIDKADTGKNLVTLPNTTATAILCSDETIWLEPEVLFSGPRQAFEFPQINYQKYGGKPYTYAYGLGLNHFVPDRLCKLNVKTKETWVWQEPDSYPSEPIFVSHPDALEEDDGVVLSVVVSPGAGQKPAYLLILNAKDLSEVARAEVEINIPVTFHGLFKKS
assay-summary: In vitro isomerase inhibition assay, bovine RPE microsome membranes
Assay type: biochemical
condition-label: inhibition of 11-cis retinol formation; values given as ranges
Catalogue of IC50 values
property: IC50

> print(dat)
                                    compound                               target.desc        result
 1   NCCCc1cccc(CCCCc2ccccc2)c1 [Example 35]  visual cycle isomerase (Bos taurus, UniProt Q28175)        ≤ 1 µM
 2    CCCCC(CCCC)c1cccc(CCCN)c1 [Example 34]  visual cycle isomerase (Bos taurus, UniProt Q28175)    1 to 10 µM
 3      CC(C)(O)CCc1cccc(CCCN)c1 [Example 4]  visual cycle isomerase (Bos taurus, UniProt Q28175)    1 to 10 µM
 4  NCCCc1cccc(CCCCCCO)c1 [Example 30, 6-(3-(3-aminopropyl)phenyl)hexan-1-ol]  visual cycle isomerase (Bos taurus, UniProt Q28175)        ≤ 1 µM
 5  CCCCCCc1cccc(CCCN)c1 [Example 28, 3-(3-hexylphenyl)propan-1-amine]  visual cycle isomerase (Bos taurus, UniProt Q28175)        ≤ 1 µM
 6  NCCCc1cccc(CCc2ccccc2)c1 [Example 22, 3-(3-phenethylphenyl)propan-1-amine]  visual cycle isomerase (Bos taurus, UniProt Q28175)    1 to 10 µM
 7     NCCCc1cccc(CCC2CCCCC2)c1 [Example 25]  visual cycle isomerase (Bos taurus, UniProt Q28175)        ≤ 1 µM
 8  NCCCc1cccc(CCC2(O)CCCCCC2)c1 [Example 20]  visual cycle isomerase (Bos taurus, UniProt Q28175)        ≤ 1 µM
 9  CCCCCc1cccc(CCCN)c1 [Example 27, 3-(3-pentylphenyl)propan-1-amine]  visual cycle isomerase (Bos taurus, UniProt Q28175)        ≤ 1 µM
10  NCCC(O)c1cccc(CCC2CCCC2)c1 (centres unmarked) [Example 17]  visual cycle isomerase (Bos taurus, UniProt Q28175)        ≤ 1 µM
11  NCCOc1cccc(CCCCCCO)c1 [Example 13, 6-(3-(2-aminoethoxy)phenyl)hexan-1-ol]  visual cycle isomerase (Bos taurus, UniProt Q28175)        ≤ 1 µM
12  CCCC(O)(CCC)CCc1cccc(CCCN)c1 [Example 3]  visual cycle isomerase (Bos taurus, UniProt Q28175)        ≤ 1 µM
13  CCCC(O)CCc1cccc(CCCN)c1 (centres unmarked) [Example 8, 1-(3-(3-aminopropyl)phenyl)hexan-3-ol]  visual cycle isomerase (Bos taurus, UniProt Q28175)    1 to 10 µM
14     CC(C)(C)CCc1cccc(CCCN)c1 [Example 29]  visual cycle isomerase (Bos taurus, UniProt Q28175)        ≤ 1 µM
15  NCCCc1cccc(CCc2cccc(-c3ccccc3)c2)c1 [Example 32]  visual cycle isomerase (Bos taurus, UniProt Q28175)  10 to 100 µM
16  NCCCc1cccc(CCCO)c1 [Example 6, 3-(3-(3-aminopropyl)phenyl)propan-1-ol]  visual cycle isomerase (Bos taurus, UniProt Q28175)  10 to 100 µM
17   NCCCc1cccc(CCC2(O)CCCCC2)c1 [Example 7]  visual cycle isomerase (Bos taurus, UniProt Q28175)        ≤ 1 µM
18  NCCOc1cccc(CCC2(O)CCCCCC2)c1 [Example 10]  visual cycle isomerase (Bos taurus, UniProt Q28175)        ≤ 1 µM
19    NCCCc1cccc(CCCc2ccccc2)c1 [Example 26]  visual cycle isomerase (Bos taurus, UniProt Q28175)        ≤ 1 µM
20  NCCOc1cccc(CCC2(O)CCSCC2)c1 [Example 11]  visual cycle isomerase (Bos taurus, UniProt Q28175)        ≤ 1 µM
